method notes: qHTS assay to identify small molecule antagonists of the estrogen receptor alpha (ER-alpha) signaling pathway using the BG1 cell line in the presence of 0.1 nM 17-beta-estradiol - cell viability counter screen (AID 1259241); also: nearly all actives have a fitted effect of over 40% in size
measurement conditions: VM7Luc4E2 (BG1) viability, CellTiter-Fluor protease, 22 h, 0.1 nM estradiol agonist added; series mostly up to 92.4 µM
Records with an inconclusive call do not appear. Activity calls are given as the source filed them. Calls follow the shape of the dose curve; as a rule, active = well fitted cell-killing curve with a large enough effect in the repeat runs; inconclusive = weak or mixed curves, or effect the other way; inactive = flat fitted curve, though single readings scatter.
Outcome codes: active, inactive

{"compound": "Oc1cccc(-c2c3nc(c(-c4cccc(O)c4)c4ccc([nH]4)c(-c4cccc(O)c4)c4nc(c(-c5cccc(O)c5)c5ccc2[nH]5)CC4)C=C3)c1", "assigned label": "active"}
{"compound": "C[C@H](CCC(=O)O)[C@H]1CC[C@H]2[C@@H]3CC[C@@H]4C[C@H](O)CC[C@]4(C)[C@H]3CC[C@]12C", "assigned label": "inactive"}
{"compound": "Oc1ccc(C2(c3ccc(O)cc3)CC3CC2C2CCCC32)cc1 (stereo not drawn)", "assigned label": "inactive"}

* * *

method notes: qHTS assay to identify small molecule antagonists of the estrogen related receptor (ERR) signaling pathway from Tox21 library (AID 1224848); also: nearly all actives have a fitted effect of over 50% in size
measurement conditions: ERR reporter cell line, luciferase antagonist mode, 18 h; series mostly up to 92.4 µM
Excerpt: U.S. Tox21 Program National Center for Advancing Translational Sciences [NCATS] NIH Chemical Genomics Center [NCGC] U.S. Environmental Protection Agency [EPA] National Institutes of Environmental Health Sciences [NIEHS] National Toxicology Program [NTP] U.S. Food and Drug Administration [FDA] Tox21 Assay Overview: Estrogen related receptors (ERRs), the first orphan nuclear receptors discovered, play an important role in the control of cellular energy metabolism. […]
Records with an inconclusive call do not appear. The source made the active and inactive calls. Calls follow the shape of the dose curve; as a rule, active = well fitted inhibition curve with a large enough effect in the repeat runs; inconclusive = weak or mixed curves; inactive = no such curve, though single readings can be large or run the other way.
Classes used: active, inactive

{"smiles code": "Cc1onc(-c2c(Cl)cccc2Cl)c1C(=O)N[C@@H]1C(=O)N2[C@@H]1SC(C)(C)[C@@H]2C(=O)O", "assigned label": "inactive"}
{"smiles code": "CCCCCCCCCCCCCCCC[N+](C)(C)CCN(Cc1ccc(OC)cc1)c1ncccn1", "assigned label": "active"}
{"smiles code": "CC[C@H]1O[C@]2(CC[C@@H]1C)C[C@@H]1C[C@@H](C/C=C(\\C)C[C@@H](C)/C=C/C=C3\\CO[C@@H]4[C@H](O)C(C)=C[C@@H](C(=O)O1)[C@]34O)O2", "assigned label": "active"}
{"smiles code": "CCc1cc(Cc2cc(CC)c(N)c(CC)c2)cc(CC)c1N", "assigned label": "active"}
{"smiles code": "N#CC1(c2ccc(F)cc2)CCC(=O)CC1", "assigned label": "inactive"}
{"smiles code": "CSc1ccc(/C=C2/C(C)=C(CC(=O)O)c3cc(F)ccc32)cc1", "assigned label": "inactive"}
{"smiles code": "Cc1cc(CCN2CCN(c3nsc4ccccc34)CC2)cc2c1NC(=O)CC2(C)C", "assigned label": "active"}
{"smiles code": "CC(C)(C)NC(=O)[C@@H]1C[C@@H]2CCCC[C@@H]2CN1C[C@@H](O)[C@H](Cc1ccccc1)NC(=O)[C@H](CC(N)=O)NC(=O)c1ccc2ccccc2n1", "assigned label": "active"}

* * *

assayed system: Cytochrome P450 2D6 (Homo sapiens) (UniProt P10635)
Sequence (P10635 whole entry, looked up): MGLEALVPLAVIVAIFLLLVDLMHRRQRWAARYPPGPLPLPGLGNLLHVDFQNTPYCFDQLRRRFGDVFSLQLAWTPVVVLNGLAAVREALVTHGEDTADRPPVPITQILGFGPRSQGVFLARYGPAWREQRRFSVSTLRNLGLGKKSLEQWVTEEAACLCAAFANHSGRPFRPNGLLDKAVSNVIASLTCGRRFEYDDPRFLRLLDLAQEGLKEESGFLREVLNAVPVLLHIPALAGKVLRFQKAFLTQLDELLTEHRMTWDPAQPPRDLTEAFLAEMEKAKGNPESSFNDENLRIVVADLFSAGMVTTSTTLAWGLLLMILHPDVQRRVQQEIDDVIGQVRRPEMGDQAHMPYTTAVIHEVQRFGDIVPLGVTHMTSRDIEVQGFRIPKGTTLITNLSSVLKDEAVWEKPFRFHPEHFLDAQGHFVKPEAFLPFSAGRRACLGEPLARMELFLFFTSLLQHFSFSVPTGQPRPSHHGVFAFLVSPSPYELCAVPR
method notes: Cytochrome P450 Family 2 Subfamily D Member 6 (CYP2D6) small molecule antagonists: luciferase reporter qHTS assay (AID 1671196); also: nearly all actives have a fitted effect of over 50% in size
measurement conditions: P450-Glo CYP2D6 enzyme assay, luciferin luminescence, 1 h; series mostly up to 115 µM
Records with an inconclusive call do not appear. Activity calls are given as the source filed them. The call rests on the fitted dose curve; in most records, active means well fitted inhibition curve with a large enough effect in the repeat runs; inconclusive means weak or mixed curves; inactive means no such curve, though single readings can be large or run the other way.
Labels: active, inactive

{"molecule": "CC/C(=C(\\c1ccc(O)cc1)c1ccc(OCCN(C)C)cc1)c1ccccc1", "assigned label": "active"}
{"molecule": "O=C(Nc1cccc(C(F)(F)F)c1)c1cc(Br)cc(Br)c1O", "assigned label": "inactive"}
{"molecule": "CCC(N)(CO)CO", "assigned label": "inactive"}
{"molecule": "CCc1cc(Cc2cc(CC)cc(C(C)(C)C)c2O)c(O)c(C(C)(C)C)c1", "assigned label": "inactive"}
{"molecule": "CCCCCCCCCCn1cc[n+](CCCCCCCCCC)c1C", "assigned label": "active"}
{"molecule": "CCCCCCCCCCCCCCCCCC[N+](C)(C)Cc1ccccc1", "assigned label": "active"}
{"molecule": "NNc1nc(-c2ccc(N)cc2)cs1", "assigned label": "active"}
{"molecule": "COc1cc(-c2nc(NC(=O)c3cc4cc(C)cc(C)c4n3CC(=O)O)sc2CCC2CCCCC2)c(OC)cc1Cl", "assigned label": "inactive"}
{"molecule": "CCc1cc(SCc2sc(-c3ccc(C(F)(F)F)cc3)nc2CN2CCN(c3ccc(OC)cc3)CC2)ccc1OCC(=O)O", "assigned label": "inactive"}
{"molecule": "Clc1ccccc1C(c1ccccc1)(c1ccccc1)n1ccnc1", "assigned label": "active"}
{"molecule": "CCOC(=O)O[C@]1(C(=O)OCCl)CC[C@H]2[C@@H]3CCC4=CC(=O)C=C[C@]4(C)[C@H]3[C@@H](O)C[C@@]21C", "assigned label": "inactive"}
{"molecule": "CC1=C(/C=C/C(C)=C/C=C/C(C)=C/C=O)C(C)(C)CCC1", "assigned label": "active"}
{"molecule": "CCCC(=O)OC[C@@H](OC(=O)CCC)[C@@H](OC(=O)CCC)[C@H](Cn1c2nc(=O)[nH]c(=O)c-2nc2cc(C)c(C)cc21)OC(=O)CCC", "assigned label": "active"}
{"molecule": "Clc1ccc(C(Cn2ccnc2)OCc2ccc(Sc3ccccc3)cc2)c(Cl)c1 (stereo unspecified)", "assigned label": "active"}
{"molecule": "CCCCCCC[N+](CC)(CC)CCCCc1ccc(Cl)cc1", "assigned label": "active"}
{"molecule": "C[n+]1cc2c3c(ccc2c2ccc4cc5c(cc4c21)OCO5)OCO3", "assigned label": "active"}
